Where do these numbers come from? They come from patent US20030219476A1.

Test: in vivo
Conditions: male, CD2F1, mouse, plasma, iv, 5 mg/kg
Counter-ions that a name gives are not always drawn.
readout: Vd (L/kg)
Reply with just the number (in L/kg).

Name the reported Vd value associated with the molecule O=C1c2c(O)ccc(O)c2C(=O)c2c(NCCNCCO)ccc(NCCNCCO)c21 [conventional mitoxantrone, mitoxantrone hydrochloride]
5.5

* * *

Test: in vivo
Conditions: female, beagle, dog, plasma, iv, 0.26 mg/kg
Counter-ions that a name gives are not always drawn.
readout: Cmax (ng/mL)
Reply with just the number (in ng/mL).

Name the reported Cmax value associated with the compound O=C1c2c(O)ccc(O)c2C(=O)c2c(NCCNCCO)ccc(NCCNCCO)c21 [conventional mitoxantrone, mitoxantrone hydrochloride]
60

* * *

Experiment: in vivo
Conditions: male, CD2F1, mouse, plasma, iv, 5 mg/kg
Counter-ions that a name gives are not always drawn.
readout: half-life (min)
Reply with just the number (in min).

Name the reported half-life value associated with the compound O=C1c2c(O)ccc(O)c2C(=O)c2c(NCCNCCO)ccc(NCCNCCO)c21 [conventional mitoxantrone, mitoxantrone hydrochloride]
6.6

* * *

Test: in vivo
Conditions: male, CD2F1, mouse, plasma, iv, 5 mg/kg
Counter-ions that a name gives are not always drawn.
readout: AUC (ng·h/mL)
Reply with just the number (in ng·h/mL).

Name the reported AUC value associated with the compound O=C1c2c(O)ccc(O)c2C(=O)c2c(NCCNCCO)ccc(NCCNCCO)c21 [conventional mitoxantrone, mitoxantrone hydrochloride]
140

* * *

Test: in vivo
Details: male, beagle, dog, plasma, iv, 0.26 mg/kg
Where a name gives a salt, the structure may show the parent alone.
readout: clearance (mL/min/kg)
Reply with just the number (in mL/min/kg).

Name the reported clearance value associated with the compound O=C1c2c(O)ccc(O)c2C(=O)c2c(NCCNCCO)ccc(NCCNCCO)c21 [conventional mitoxantrone, mitoxantrone hydrochloride]
89

* * *

Experiment: in vivo
Conditions: male, CD2F1, mouse, plasma, iv, 5 mg/kg
Counter-ions that a name gives are not always drawn.
readout: Cmax (ng/mL)
Reply with just the number (in ng/mL).

Name the reported Cmax value associated with the molecule O=C1c2c(O)ccc(O)c2C(=O)c2c(NCCNCCO)ccc(NCCNCCO)c21 [conventional mitoxantrone, mitoxantrone hydrochloride]
410
